study_system: Enoyl-[acyl-carrier-protein] reductase [NADH] (Mycobacterium tuberculosis, UniProt P9WGR1)
Sequence (P9WGR1 whole entry): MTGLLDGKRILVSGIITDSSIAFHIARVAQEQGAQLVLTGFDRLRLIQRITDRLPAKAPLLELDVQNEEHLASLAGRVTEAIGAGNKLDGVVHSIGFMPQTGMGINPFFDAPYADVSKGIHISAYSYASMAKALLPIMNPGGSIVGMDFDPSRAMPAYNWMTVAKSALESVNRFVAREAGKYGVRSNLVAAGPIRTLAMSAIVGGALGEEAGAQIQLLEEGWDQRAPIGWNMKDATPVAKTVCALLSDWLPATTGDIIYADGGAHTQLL
experimental_details: Inhibition of Mycobacterium tuberculosis recombinant InhA expressed in Escherichia coli BL21 (DE3) using 2-trans-decenoyl substrate by spectrophotometry
Doc: threshold 5 µM (exclusive). Items with IC50 beneath it return class 1; others return class 0.

>>> print(df.to_string())
                                 smiles_text  label_class
 0    Cc1nc2ccc(Cl)cc2c(=O)n1CC(=O)NCc1cccs1      class 0
 1       O=C(Cn1cnc2ccc(Cl)cc2c1=O)NCc1cccs1      class 0
 2    Cc1nc2ccc(Cl)cc2c(=O)n1CC(=O)NCc1ccco1      class 1
 3        Cc1nc2ccccc2c(=O)n1CC(=O)NCc1cccs1      class 0
 4    Cc1nc2ccc(Cl)cc2c(=O)n1CC(=O)Nc1ccccc1      class 1
 5        Cc1nc2ccccc2c(=O)n1CC(=O)NCc1ccco1      class 0
 6        Cc1nc2ccccc2c(=O)n1CC(=O)Nc1ccccc1      class 0
 7  Cc1nc2ccccc2c(=O)n1CC(=O)NCc1nc2ccc([N+](=O)[O-])cc2s1      class 0
 8       O=C(Cn1cnc2ccc(Cl)cc2c1=O)NCc1ccco1      class 1
 9       O=C(Cn1cnc2ccc(Cl)cc2c1=O)Nc1ccccc1      class 0
10  O=C(Cn1cnc2ccccc2c1=O)Nc1cc(C(F)(F)F)ccc1Cl      class 0
11  O=C(Cn1cnc2ccc(Cl)cc2c1=O)Nc1cc(C(F)(F)F)ccc1Cl      class 1
